System: Fibroblast
Test: Incucyte cell viability with human fibroblast; further: unitless GR value; below 1 slowed growth and below 0 cell loss
Assay type: toxicity, cell-based
Settings: 24 h, 10 µM, compound concentration 10 uM, replicate number 1
Square brackets hold non-standard residues; d marks the D form. Peptide text beside a SMILES is read from it. * marks the point of attachment. Benzoyl(4-OPh) = O=C(c1ccc(Oc2ccccc2)cc1)*; Lys(Et2) = CCN(CC)CCCC[C@H](N)C(=O)O; d(aIle) = CC[C@H](C)[C@@H](N)C(=O)O; Gly(cPent) = N[C@H](C(=O)O)C1CCCC1; NH(propargyl) = C#CCN*; CH2Cl = ClC*
# Growth Rate values compiled below

# COMPOUND, Growth Rate
measured = [
    ("NC(=O)[C@H]1CCCCc2c1[nH]c1ccc(Cl)cc21", 1),
    ("CNc1ncc2cc(-c3cc(NC(=O)NCCC(C)(C)C)c(F)cc3C)c(C)nc2n1 [LY-3009120]", -0.76),
    ("Nc1ccc(-c2cccs2)cc1NC(=O)c1ccc2nc(N3CCNCC3)ccc2c1", 1),
    ("CC(=O)N[C@@H](Cc1ccccc1)C(=O)N[C@@H](CC(C)C)C(=O)N[C@H](C(=O)N[C@@H](CC(=O)O)C(=O)CCl)[C@@H](C)O (Ac-FLTD-CH2Cl)", 0.51),
    ("CC(=O)OCCN1C(=O)c2c(C)nc3ccc(S(=O)(=O)N4CCOCC4)cc3c2C1=O", 0.85),
    ("CC(C)n1nc(-c2cc3cc(O)ccc3[nH]2)c2c(N)ncnc21", 0.59),
    ("COc1ccc2c(c1)OC(C)(C)C(c1ccccc1)C2c1ccc(OCCN2CCCC2)cc1 (stereo not drawn) [ORMELOXIFENE]", 1),
    ("CC(=O)O[C@]1(C(C)=O)CC[C@H]2[C@@H]3C=C(Cl)C4=CC(=O)[C@@H]5C[C@@H]5[C@]4(C)[C@H]3CC[C@@]21C [CYPROTERONE ACETATE]", 0.21),
    ("CC(=O)N1CCN([C@H]2CCC[C@@H](NC(=O)c3cc4c(F)ccc(C)c4[nH]3)C2)CC1 [EZM-0414]", 0.85),
    ("O=C1Cc2cc(C(=O)N[C@@H]3C[C@H]4CC[C@@H](C3)N4S(=O)(=O)CC3CCN(CCCC(F)(F)F)CC3)c(Cl)cc2N1", 0.96),
    ("CS(=O)(=O)c1ccc(-c2cnc(NCc3ccco3)n3cnnc23)cc1", 1),
    ("CN1CCN(c2cc(C(=O)Nc3ncc(SCc4cccc(C(F)(F)F)c4)s3)ccn2)CC1", 0.19),
    ("COc1cc(C(C)C)c2c(c1)S(=O)(=O)N(COc1cc(=O)n3cccc(OCCN4CCCCC4)c3n1)C2=O", -0.1),
    ("NC(=O)c1ccc(Oc2ccc(C(N)=O)cc2)cc1", 1),
    ("Cc1cc(OCc2nnc(SC3CCCC3)n2-c2cccnc2)ccc1-c1ccc(S(C)(=O)=O)cc1", -0.37),
    ("O=C([O-])CCNc1cc(N2CCc3ccccc3CC2)nc(-c2cccnc2)n1.[Na+]", 1),
    ("COc1cc2c(NC3CCN(C)CC3)nc(N3CCCN(C)CC3)nc2cc1OCCCN(C)C", 1),
    ("C[C@@H]1CN(c2nccc(Nc3ccc4c(c3)n(CCC(C)(C)O)c(=O)n4C)n2)C[C@H](C)C1(F)F", 0.74),
    ("Nc1nc2cc(CC[C@H]3C[C@@H](n4ccc5c(N)ncnc54)[C@H](O)[C@@H]3O)ccc2cc1Br [ONAMETOSTAT]", 0.43),
    ("Cc1cc(-c2ccccc2)cc(C(=O)NNS(=O)(=O)c2ccccc2)c1F", 1),
    ("CC(C)C[C@@H](C=O)NC(=O)[C@@H](NS(=O)(=O)c1ccc(F)cc1)C(C)C", 0.96),
    ("CCCCCCCCCCCCCCCCNNC(=O)c1cccs1", 0.8),
    ("O=C(C1CC1)N1CC[C@@H](Cc2n[nH]c(=O)n2-c2ccc(-c3ccc4occc4c3)cc2)C1", 0.43),
    ("COc1cc2c(NC3CCN(C4CCCCC4)CC3)nc(N3CCCN(C(C)C)CC3)nc2cc1OCCCN1CCCCC1", 0.42),
    ("CCN(CC)S(=O)(=O)c1cc(Nc2nccc(-c3ccnc(-c4ccc(NC(=O)NC)cc4)c3)n2)ccc1Cl", 0.14),
    ("CC(=O)Nc1ccc(-c2cc(-c3ccccc3)nc3cc(C(=O)NCCCn4ccnc4)nn23)cc1", 0.41),
    ("C#CCNC(=O)[C@H](CO)NC(=O)[C@H](CCCCN(CC)CC)NC(=O)[C@H](NC(=O)[C@@H](NC(=O)c1ccc(Oc2ccccc2)cc1)C1CCCC1)[C@@H](C)CC ({Benzoyl(4-OPh)}-[Gly(cPent)][d(aIle)][Lys(Et2)]S-{NH(propargyl)})", 1),
    ("O=C(NCC1(c2nc(-c3ccccc3)cs2)CCOCC1)c1cccc(-c2noc(C(F)(F)F)n2)c1", 1),
    ("CC(C)(C)c1ccc(CN(C(=O)CN(Cc2c(F)c(F)c(F)c(F)c2F)S(=O)(=O)c2ccc(F)cc2)c2ccc(C(=O)NO)cc2)cc1", 0.66),
    ("CCS(=O)(=O)N1CC(CC#N)(n2cc(-c3ncnc4[nH]ccc34)cn2)C1 [BARICITINIB]", 0.11),
    ("O=C(CCl)Nc1ccc(S(=O)(=O)c2ccc(NC(=O)CCl)cc2)cc1", -0.61),
    ("COc1cccc(OC)c1S(=O)(=O)Nc1noc2cc(Cn3cccn3)cc(OC)c12", 0.79),
    ("O=C(CCCCCCNC(=O)c1cnc(N(c2ccccc2)c2ccccc2Cl)nc1)NO [CITARINOSTAT]", 1),
]

---

System: U2OS
Assay: Incucyte cell viability with U2OS; further: unitless GR value; below 1 slowed growth and below 0 cell loss
Format: toxicity, cell-based
Settings: human, 24 h, 10 µM, compound concentration 10 uM, replicate number 2
Response key: Condition met means Growth Rate >= 0.7; Condition not met means Growth Rate < 0.7.

# MOLECULE, CLASS_NAME
rows = [
    ("Cc1cc(C)cc(Oc2ccc(CNC(=O)[C@H](C)N)cc2C)c1.Cl", "Condition met"),
    ("Cc1ncc(Cl)cc1NCc1ccc(C(=O)N[C@@H](CC2CCCC2)C(=O)NC2CC2)s1", "Condition met"),
    ("CNC(=O)c1ccc(-c2cc3cccc(-c4nn(C5CCOCC5)c5c4CN(C(C)=O)CC5)c3cn2)cn1", "Condition met"),
    ("CC(C)c1cnc(CSc2cnc(NC(=O)C3CCNCC3)s2)o1", "Condition not met"),
    ("COc1cc2c(NCC3CCN(C)CC3)cc(-c3ccc(C)o3)nc2cc1OCCCN1CCCC1", "Condition not met"),
    ("CN(C)Cc1ccc(S(=O)(=O)n2ccc(/C=C/C(=O)NO)c2)cc1.Cl", "Condition not met"),
    ("CC(C)(C)c1ccc(CN(C(=O)CN(Cc2c(F)c(F)c(F)c(F)c2F)S(=O)(=O)c2ccc(F)cc2)c2ccc(C(=O)NO)cc2)cc1", "Condition met"),
    ("Cl.Cl.Nc1ncnc2c1ncn2[C@@H]1O[C@H](C(=O)N2CCN(CC(=O)Nc3cccc4c3CNC4=O)CC2)[C@@H](O)[C@H]1O", "Condition met"),
    ("Cl.Cl.O=C(O)Cn1nnc(-c2ccc(CN(CCCCOc3ccc(CN4CCCC4)cc3)CCc3ccccc3)cc2)n1", "Condition met"),
    ("CCCN1CCN(c2ccc(C(=O)NC3(C(=O)NCC#N)CCCCC3)cc2)CC1 [BALICATIB]", "Condition met"),
    ("Cc1ncsc1-c1ccc(CNC(=O)[C@@H]2C[C@@H](O)CN2C(=O)[C@@H](NC(=O)COCCOCCOCCNC(=O)C[C@@H]2N=C(c3ccc(Cl)cc3)c3c(sc(C)c3C)-n3c(C)nnc32)C(C)(C)C)cc1", "Condition not met"),
    ("Cc1nc(Nc2ncc(C(=O)Nc3c(C)cccc3Cl)s2)cc(N2CCN(CCO)CC2)n1 [DASATINIB ANHYDROUS]", "Condition not met"),
    ("CC(C)(F)C[C@H](N[C@@H](c1ccc(-c2ccc(S(C)(=O)=O)cc2)cc1)C(F)(F)F)C(=O)NC1(C#N)CC1 [ODANACATIB]", "Condition met"),
    ("O=C(NO)c1cccc(C(=O)NCCc2ccccc2)c1", "Condition met"),
]

---

Test system: Fibroblast
Test: Incucyte cell viability with human fibroblast; further: unitless GR value; below 1 slowed growth and below 0 cell loss
Type: toxicity, cell-based
Conditions: 24 h, 10 µM, compound concentration 10 uM, replicate number 1

# COMPOUND, Growth Rate
measured = [
    ("Cc1ncsc1-c1ccc(CNC(=O)[C@@H]2C[C@@H](O)CN2C(=O)[C@@H](NC(=O)COCC(C)(COCCOCCOCCNC(=O)C[C@@H]2N=C(c3ccc(Cl)cc3)c3c(sc(C)c3C)-n3c(C)nnc32)COCCOCCOCCNC(=O)C[C@@H]2N=C(c3ccc(Cl)cc3)c3c(sc(C)c3C)-n3c(C)nnc32)C(C)(C)C)cc1", 1),
    ("COC(=O)[C@@H]1CC2=CC(=O)CC[C@]2(C)[C@@]23O[C@@H]2C[C@@]2(C)[C@@H](CC[C@@]24CCC(=O)O4)[C@H]13 [EPLERENONE]", 0.25),
    ("CCOC(=O)NCCCC(=O)NCCc1ccccc1", 1),
    ("CCC(=O)N1CCOc2c(cc(-c3cc(OC)cc(OC)c3)cc2C(=O)N[C@H]2CCCN(C)C2)C1", 0.84),
]
